- Tested on: Wolbachia pipientis
- experimental protocol: Anti-Wolbachia Cell-Based Screen
- Assay type: functional
- Design: scale not given: in the data most compounds retested in dose-response had high values
- condition set: 5 µM
Among all 48,000 compounds or so, about 13,000 (27%) showed an effect of 50% or more. Some of the results follow.
Overview of recorded Percent Effect for various compounds
Value expressed in %; do not type the unit.

These solved cases illustrate the format of a correct answer.
compound: CCS(=O)(=O)NC[C@]12COC[C@H]1CN(Cc1ccncc1)C2.O=C(O)C(F)(F)F.O=C(O)C(F)(F)F
unit of measurement: %
Percent Effect: -4.372
--
compound: CC(=O)N1CCN(Cc2ccncc2)CC2(CC(=O)N(C)C2)C1.O=C(O)C(F)(F)F.O=C(O)C(F)(F)F (stereo not given)
unit of measurement: %
Percent Effect: 112.8
--
compound: Cn1ccnc1CN1CCC2(CC(=O)N(c3ccccn3)C2)C1.O=C(O)C(F)(F)F.O=C(O)C(F)(F)F (stereo not given)
unit of measurement: %
Percent Effect: -3.39
--
compound: CC(=O)N1CCOCC2(CN(Cc3ccccn3)CCO2)C1.O=C(O)C(F)(F)F.O=C(O)C(F)(F)F (stereo not given)
unit of measurement: %
Percent Effect: -7.165

Next compound, Percent Effect to be filled in.
Recorded Percent Effect (compound CN(C)C(=O)N1CCCC2(CCN(Cc3ccncc3)C2)C1 (stereo not given) ): -11.09

* * *

- Tested on: Wolbachia pipientis
- experimental protocol: Anti-Wolbachia Cell-Based Screen
- Format: functional
- Design: scale not given: in the data most compounds retested in dose-response had high values
- condition set: 5 µM
Screen size: about 48,000 compounds; about 13,000 (27%) showed an effect of 50% or more. This is one part of the list.
recorded endpoint: Percent Effect (%)
Value expressed in %; do not type the unit.

These solved cases illustrate the format of a correct answer.
compound: OC[C@@H]1[C@@H](c2ccccc2)CN2CCN(c3ccccn3)C[C@H]12
assay target: Wolbachia pipientis
readout value: 121.4
--
compound: Cc1cccc(CO[C@@H]2CC[C@H]3[C@H]2OCCN3Cc2ccoc2)n1
assay target: Wolbachia pipientis
readout value: 89.7
--
compound: Cc1cc(CN2C[C@@H]3CN(C(=O)c4ccsc4)CCO[C@@H]3C2)no1.O=C(O)C(F)(F)F
assay target: Wolbachia pipientis
readout value: 15.19
--
compound: Cc1cccnc1CC(C)NC1Cc2ccccc2C1 (stereo not given)
assay target: Wolbachia pipientis
readout value: -26.27
--
compound: O=C1Nc2ccccc2CC12CCCN2Cc1ccccn1 (stereo not given)
assay target: Wolbachia pipientis
readout value: 100.2
--
compound: O=C(c1ccc[nH]1)N1CCCC2(CCCN2Cc2cccnc2)C1 (stereo not given)
assay target: Wolbachia pipientis
readout value: 22.1
--
compound: CN(C)C(=O)CN1CCO[C@H]2CN(c3ccccn3)C[C@H]21
assay target: Wolbachia pipientis
readout value: -17.61
--
compound: CC(C)C(=O)N1CCCC2(CCCN2Cc2cccnc2)C1 (stereo not given)
assay target: Wolbachia pipientis
readout value: -11.99
--
compound: COCC(=O)NC(C)Cc1cccc(Br)c1 (stereo not given)
assay target: Wolbachia pipientis
readout value: -14.37

Next compound, Percent Effect to be filled in.
Recorded Percent Effect (compound `CCO[C@@H]1CC[C@H]2[C@H]1OCCN2Cc1ccoc1.O=C(O)C(F)(F)F` ): 96.95
